Experimental System: ALPK1 (Homo sapiens)
Construct: endogenous in cells; host or cells: 293T cells
Experimental Details: NF-κB luciferase reporter assay in 293T cells (cellular assay)
Type: cell-based
Description: The compounds disclosed herein activate NF-κB through ALPK1-TIFA axis as determined by the NF-κB luciferase reporter and TIFA phosphorylation. […] NF-κB luciferase activity was determined using the dual luciferase assay kit (Promega) according to the manufacturer's instructions. […] The EC50 of the compounds disclosed herein were determined by the NF-κB luciferase reporter assay using 293T cells described supra. […]
Measured Quantity: EC50 (nM)
Note: unit nM is implicit; provide only the numeric part.

Look up ALPK1 (Homo sapiens) data: EC50 of CC(=O)OC[C@H](OC(C)=O)C1OC(OP(=O)(O)OP(=O)(S)OC[C@H]2O[C@@H](n3cnc4c(N)ncnc43)[C@H](N3CCC3)[C@@H]2O)C(OC(C)=O)C(OC(C)=O)C1OC(C)=O (some centres unmarked) [Example 36C] , then report it.
1620

====

Experimental Details: PK / tissue distribution in Sprague-Dawley rats
Assay type: in vivo
Run Conditions: female, rat, PO, 5 mg/kg, plasma, read-out: Cmax in Plasma
Procedure: Tissue distribution study of the compounds disclosed herein were conducted in SD rats and mice to assess their liver-targeting properties. […] The pharmacokinetics of the compounds disclosed herein were evaluated in female Sprague-Dawley rats after administration via oral gavage and intravenous bolus (IV) injection. […] The samples were analyzed by LC/MS/MS and the concentrations of test compound and its metabolites at each time point were determined. […]
Measured Quantity: Cmax (ng/mL)
Field format: number, assumed ng/mL, no unit text.

Examples with their reported Cmax follow.
[[record]]
compound = "CC(=O)OC[C@H](OC(C)=O)C1OC(OP(=O)(O)OP(=O)(S)OC[C@H]2O[C@@H](n3cnc4c(N)ncnc43)[C@H](N(C)C)[C@@H]2O)C(OC(C)=O)C(OC(C)=O)C1OC(C)=O (stereo partly drawn) [Example 35C]"
measured_quantity = "Cmax"
uom = "ng/mL"
assay_result = 75.5

[[record]]
compound = "C=C[C@@]1(F)[C@H](O)[C@@H](COP(=O)(S)OP(=O)(O)OC2OC([C@H](COC(C)=O)OC(C)=O)C(OC(C)=O)C(OC(C)=O)C2OC(C)=O)O[C@H]1n1ccc(=O)[nH]c1=O (stereo partly drawn) [Example 42C]"
measured_quantity = "Cmax"
uom = "ng/mL"
assay_result = 2.4


Provide measured Cmax value, entry: C=C[C@@]1(O)[C@H](O)[C@@H](COP(=O)(S)OP(=O)(O)OC2OC([C@H](COC(C)=O)OC(C)=O)C(OC(C)=O)C(OC(C)=O)C2OC(C)=O)O[C@H]1c1cnc2c(N)ncnn12 (stereo partly drawn) [Example 127C]
0.4

====

This section presents molecules with their documented EC50 values.
Experimental System: ALPK1 (Homo sapiens, UniProt Q96QP1)
Construct: endogenous in cells; host or cells: 293T cells
Sequence (Q96QP1 whole entry): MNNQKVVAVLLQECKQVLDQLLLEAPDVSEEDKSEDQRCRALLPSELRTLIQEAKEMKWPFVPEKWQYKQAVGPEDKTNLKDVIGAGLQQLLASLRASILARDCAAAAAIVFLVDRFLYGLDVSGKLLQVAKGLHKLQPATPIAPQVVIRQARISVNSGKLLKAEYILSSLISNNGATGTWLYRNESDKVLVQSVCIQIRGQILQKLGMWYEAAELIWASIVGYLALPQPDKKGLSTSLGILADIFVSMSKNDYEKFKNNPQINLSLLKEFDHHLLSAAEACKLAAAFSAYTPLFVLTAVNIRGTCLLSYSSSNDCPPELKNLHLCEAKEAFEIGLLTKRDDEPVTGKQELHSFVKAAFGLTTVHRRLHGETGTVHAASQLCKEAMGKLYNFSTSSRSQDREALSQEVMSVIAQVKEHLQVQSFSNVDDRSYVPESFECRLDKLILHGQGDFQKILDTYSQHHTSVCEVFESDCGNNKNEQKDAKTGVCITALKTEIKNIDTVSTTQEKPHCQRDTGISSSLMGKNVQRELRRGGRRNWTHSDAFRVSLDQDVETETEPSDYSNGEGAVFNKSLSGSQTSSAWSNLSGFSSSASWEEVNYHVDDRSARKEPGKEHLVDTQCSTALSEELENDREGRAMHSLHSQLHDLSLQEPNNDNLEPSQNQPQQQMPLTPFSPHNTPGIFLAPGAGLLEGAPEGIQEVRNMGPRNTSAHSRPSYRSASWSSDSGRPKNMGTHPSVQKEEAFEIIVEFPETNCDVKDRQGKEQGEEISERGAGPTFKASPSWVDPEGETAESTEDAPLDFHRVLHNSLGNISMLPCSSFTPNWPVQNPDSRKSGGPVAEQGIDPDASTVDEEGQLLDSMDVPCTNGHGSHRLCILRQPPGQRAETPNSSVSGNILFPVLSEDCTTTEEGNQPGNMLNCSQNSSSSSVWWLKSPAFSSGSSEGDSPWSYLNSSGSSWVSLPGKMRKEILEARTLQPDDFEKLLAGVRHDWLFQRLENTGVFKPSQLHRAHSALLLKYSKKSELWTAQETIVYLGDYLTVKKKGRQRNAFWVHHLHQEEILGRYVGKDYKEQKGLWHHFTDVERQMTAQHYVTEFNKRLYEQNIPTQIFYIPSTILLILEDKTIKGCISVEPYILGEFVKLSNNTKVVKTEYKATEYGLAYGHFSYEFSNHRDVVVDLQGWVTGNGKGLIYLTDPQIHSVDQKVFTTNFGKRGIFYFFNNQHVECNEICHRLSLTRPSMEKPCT
Experimental Details: Enzymatic assay of ALPK1 activation
Assay type: biochemical
Please respond with the number in nM and leave the unit unwritten.

Before answering, review these 3 worked examples.
[[record]]
molecule = "C#C[C@@]1(O)[C@H](O)[C@@H](COP(=O)(S)OP(=O)(O)OC2OC([C@@H](O)CO)C(O)C(O)C2O)O[C@H]1n1cnc2c(N)ncnc21 (stereo partly shown) [Example 25D]"
assay_result = 17

[[record]]
molecule = "C=C[C@@]1(O)[C@H](O)[C@@H](CO[P@@](=O)(S)OP(=O)(O)OC2OC([C@@H](O)CO)C(O)C(O)C2O)O[C@H]1n1cnc2c(N)ncnc21 (single isomer, unassigned) [Example 31R]"
assay_result = 12

[[record]]
molecule = "C#C[C@@]1(F)[C@H](O)[C@@H](COP(=O)(S)OP(=O)(O)OC2OC([C@@H](O)CO)C(O)C(O)C2O)O[C@H]1n1ccc(=O)[nH]c1=O (stereo partly shown) [Example 22D]"
assay_result = 64


As a next step, examine the molecule that follows.
Give EC50 only, for C=C[C@@]1(O)[C@H](O)[C@@H](CO[P@](=O)(S)OP(=O)(O)OC2OC([C@@H](O)CO)C(O)C(O)C2O)O[C@H]1n1cnc2c(N)ncnc21 (single isomer, unassigned) [Example 31Q] , using ALPK1 (Homo sapiens, UniProt Q96QP1) data.
11

====

Experimental System: ALPK1 (Homo sapiens, UniProt Q96QP1)
Construct: endogenous in cells; host or cells: 293T cells
Experimental Details: NF-κB luciferase reporter assay in 293T cells (cellular assay)
Assay type: cell-based
Measured Quantity: pEC50
pEC50 (log units): -log10 of the concentration in mol/L.

Sample answers from the record:
[[record]]
molecule = "C=C[C@@]1(F)[C@H](O)[C@@H](COP(=O)(S)OP(=O)(O)OC2OC([C@@H](O)CO)C(O)C(O)C2O)O[C@H]1n1ccc(=O)[nH]c1=O (stereo partly shown) [Example 42D]"
assay_result = 7.85

[[record]]
molecule = "C=C=C[C@@]1(O)[C@H](O)[C@@H](COP(=O)(S)OP(=O)(O)OC2OC([C@H](COC(C)=O)OC(C)=O)C(OC(C)=O)C(OC(C)=O)C2OC(C)=O)O[C@H]1n1cnc2c(N)ncnc21 (stereo partly shown) [Example 97C]"
assay_result = 5.97

[[record]]
molecule = "C=C[C@@]1(OC)[C@H](O)[C@@H](COP(=O)(S)OP(=O)(O)OC2OC([C@H](COC(C)=O)OC(C)=O)C(OC(C)=O)C(OC(C)=O)C2OC(C)=O)O[C@@H]1n1ccc(=O)[nH]c1=O (stereo in doubt) [Example 45E]"
assay_result = 8.11

[[record]]
molecule = "C=C[C@@]1(O)[C@H](O)[C@@H](COP(=O)(S)OP(=O)(O)OC2OC([C@@H](O)CO)C(O)C(O)C2O)O[C@H]1n1ccc(=O)[nH]c1=O (stereo partly shown) [Example 43D]"
assay_result = 7.74


# return recorded pEC50 for input C=C[C@@]1(O)[C@H](O)[C@@H](CO[P@](=O)(S)OP(=O)(O)OC2OC([C@H](COC(C)=O)OC(C)=O)C(OC(C)=O)C(OC(C)=O)C2OC(C)=O)O[C@H]1n1cnc2c(N)ncnc21 (single isomer, unassigned) [Example 31O]
7.68

Report pEC50 for C#C[C@@]1(F)[C@H](O)[C@@H](COP(=O)(S)OP(=O)(O)OC2OC([C@@H](O)CO)C(O)C(O)C2O)O[C@H]1n1ccc(=O)[nH]c1=O (stereo partly shown) [Example 22D]
8.25

Specify measured pEC50 for C=C[C@@]1(O)[C@H](O)[C@@H](COP(=O)(S)OP(=O)(O)OC2OC([C@H](COC(C)=O)OC(C)=O)C(OC(C)=O)C(OC(C)=O)C2OC(C)=O)O[C@H]1c1csc2c(N)ncnc12 (stereo partly shown) [Example 265C] .
7.34

# return recorded pEC50 for input C=C[C@@]1(F)[C@H](O)[C@@H](COP(=O)(S)OP(=O)(O)OC2OC([C@@H](O)CO)C(O)C(O)C2O)O[C@H]1n1cnc2c(N)ncnc21 (single isomer, unassigned) [Example 41D]
8.24

Please give the documented pEC50 of CC(=O)OC[C@H](OC(C)=O)C1OC(OP(=O)(O)OP(=O)(S)OC[C@H]2O[C@@H](n3ccc(=O)[nH]c3=O)[C@](C)(N)[C@@H]2O)C(OC(C)=O)C(OC(C)=O)C1OC(C)=O (stereo partly shown) [Example 112C]
6.44

Kindly indicate its recorded pEC50. Item: C=C[C@@]1(O)[C@H](O)[C@@H](CO[P@@](=O)(S)OP(=O)(O)OC2OC([C@H](COC(C)=O)OC(C)=O)C(OC(C)=O)C(OC(C)=O)C2OC(C)=O)O[C@H]1n1cnc2c(N)ncnc21 (single isomer, unassigned) [Example 31P]
8.14

Specify reported pEC50 for the molecule shown: C=C[C@@]1(O)[C@H](O)[C@@H](COP(=O)(S)OP(=O)(O)OC2OC([C@H](COC(C)=O)OC(C)=O)C(OC(C)=O)C(OC(C)=O)C2OC(C)=O)O[C@H]1c1coc2c(N)ncnc12 (stereo partly shown) [Example 125C]
8.54

# return recorded pEC50 for entry CN(C)[C@@H]1[C@H](O)[C@@H](CO[P@@](=O)(S)OP(=O)(O)OC2OC([C@@H](O)CO)C(O)C(O)C2O)O[C@H]1n1cnc2c(N)ncnc21 (single isomer, unassigned) [Example 35J]
7.99

====

Experimental Details: PK / tissue distribution in Sprague-Dawley rats
Type: in vivo
Run Conditions: female, rat, plasma, IV 1 mg/kg, read-out: CL post IV Dosing @1 mg/kg
# clearance values compiled below
The reply should contain only the number, in mL/min/kg.

[[record]]
compound = "C=C[C@@]1(F)[C@H](O)[C@@H](COP(=O)(S)OP(=O)(O)OC2OC([C@H](COC(C)=O)OC(C)=O)C(OC(C)=O)C(OC(C)=O)C2OC(C)=O)O[C@H]1n1ccc(=O)[nH]c1=O (stereo partly drawn) [Example 42C]"
uom = "mL/min/kg"
assay_result = 18.6

[[record]]
compound = "CC(=O)OC[C@H](OC(C)=O)C1OC(OP(=O)(O)OP(=O)(S)OC[C@H]2O[C@@H](n3cnc4c(N)ncnc43)[C@H](N(C)C)[C@@H]2O)C(OC(C)=O)C(OC(C)=O)C1OC(C)=O (stereo partly drawn) [Example 35C]"
uom = "mL/min/kg"
assay_result = 7.67


Okay, next one:
For the compound C=C[C@@]1(O)[C@H](O)[C@@H](COP(=O)(S)OP(=O)(O)OC2OC([C@H](COC(C)=O)OC(C)=O)C(OC(C)=O)C(OC(C)=O)C2OC(C)=O)O[C@H]1n1cnc2c(N)ncnc21 (stereo partly drawn) [Example 31C] , give its measured clearance value.
14.6
